# Target of assay: Metabotropic glutamate receptor 1 (Homo sapiens, UniProt Q13255)
# Sequence (Q13255 whole entry): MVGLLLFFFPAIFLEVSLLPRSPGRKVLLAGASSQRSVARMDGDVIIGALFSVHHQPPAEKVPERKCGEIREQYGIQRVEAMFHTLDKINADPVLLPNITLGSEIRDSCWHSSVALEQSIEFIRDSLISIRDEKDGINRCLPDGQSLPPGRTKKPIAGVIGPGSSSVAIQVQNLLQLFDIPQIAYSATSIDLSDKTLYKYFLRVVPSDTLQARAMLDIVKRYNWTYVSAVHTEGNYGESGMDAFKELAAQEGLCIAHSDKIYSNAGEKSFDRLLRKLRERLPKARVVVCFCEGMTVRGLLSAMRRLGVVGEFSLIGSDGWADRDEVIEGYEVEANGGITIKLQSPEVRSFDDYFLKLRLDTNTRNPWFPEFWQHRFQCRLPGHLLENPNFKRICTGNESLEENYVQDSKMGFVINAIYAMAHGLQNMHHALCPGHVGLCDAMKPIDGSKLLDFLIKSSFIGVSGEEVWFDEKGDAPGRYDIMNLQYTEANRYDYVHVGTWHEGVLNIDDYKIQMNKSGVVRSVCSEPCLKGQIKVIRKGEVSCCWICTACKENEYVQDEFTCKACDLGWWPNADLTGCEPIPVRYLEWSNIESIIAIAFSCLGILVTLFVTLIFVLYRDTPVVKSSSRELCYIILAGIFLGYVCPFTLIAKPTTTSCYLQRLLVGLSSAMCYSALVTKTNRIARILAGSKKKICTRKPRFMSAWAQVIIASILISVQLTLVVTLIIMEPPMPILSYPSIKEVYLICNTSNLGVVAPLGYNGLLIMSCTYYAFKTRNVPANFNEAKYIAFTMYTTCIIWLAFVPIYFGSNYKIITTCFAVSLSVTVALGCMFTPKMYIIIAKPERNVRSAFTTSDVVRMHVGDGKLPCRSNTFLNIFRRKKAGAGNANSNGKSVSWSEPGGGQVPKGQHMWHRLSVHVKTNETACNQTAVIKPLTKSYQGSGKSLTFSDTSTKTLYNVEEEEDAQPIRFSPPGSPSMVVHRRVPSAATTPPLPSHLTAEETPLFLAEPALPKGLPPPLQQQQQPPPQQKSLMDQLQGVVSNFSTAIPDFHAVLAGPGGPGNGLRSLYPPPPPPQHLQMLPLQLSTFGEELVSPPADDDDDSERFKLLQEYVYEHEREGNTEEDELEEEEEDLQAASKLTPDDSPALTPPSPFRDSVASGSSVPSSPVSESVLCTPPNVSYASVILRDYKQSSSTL
# Assay procedure: Effect of compound on Metabotropic glutamate receptor 1 expressed in HEK 293 cells was determined by measuring IP production relative to glutamate
Metric name: EC50 (µM)
Numbers only, in µM.

Provide the documented EC50 with Metabotropic glutamate receptor 1 (Homo sapiens, UniProt Q13255) as the system for N[C@H](C(=O)O)[C@H](O)[C@H](O)C(=O)O
257
